- TESTED_ON: T1, human GIP receptor (human, UniProt P48546 22-466)
- T1 construct: whole, on cells; Used as crude membranes of stably transfected CHO cells; also called hGIPR
- T1 sequence (looked up): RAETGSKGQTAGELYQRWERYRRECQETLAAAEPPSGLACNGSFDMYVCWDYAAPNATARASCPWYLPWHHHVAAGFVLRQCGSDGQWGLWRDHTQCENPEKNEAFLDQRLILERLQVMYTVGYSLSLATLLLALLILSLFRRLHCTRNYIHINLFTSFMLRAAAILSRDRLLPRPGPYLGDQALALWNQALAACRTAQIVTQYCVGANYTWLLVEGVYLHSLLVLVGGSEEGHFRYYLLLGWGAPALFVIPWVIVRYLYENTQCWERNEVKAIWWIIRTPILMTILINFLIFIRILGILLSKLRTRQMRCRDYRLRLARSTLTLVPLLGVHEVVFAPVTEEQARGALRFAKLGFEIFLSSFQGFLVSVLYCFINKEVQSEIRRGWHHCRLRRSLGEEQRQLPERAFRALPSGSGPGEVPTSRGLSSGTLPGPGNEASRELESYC
- TEST_SUMMARY: SPA, [125I]-GIP displacement, hGIPR membranes
pKi: −log10 of the molar value.
Decide by pKi: equal to or exceeding 10 means 1.0, less means 0.0.

Example results:
{"columns": ["BINDER", "ASSIGNED_CLASS"],
 "data": [
  ["YXEGTXTSDYSIXLDKKAQXSFIEYLIEGGPSSGAPPPS (Aib2; αMeF6; αMeL13; K17((2-[2-(2-Amino-ethoxy)-ethoxy]-acetyl)2-(γ-Glu)-CO-(CH2)18-CO2H); Aib20; C-terminal NH2) [Example 138]", 1.0],
  ["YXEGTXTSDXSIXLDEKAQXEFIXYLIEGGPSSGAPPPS (Aib2; αMeF(2F)6; 4Pal10; αMeL13; K17((2-[2-(2-Amino-ethoxy)-ethoxy]-acetyl)2-CO-(CH2)16-CO2H); Aib20; D-Glu24; C-terminal NH2) [Example 205]", 1.0],
  ["YXEGTXTSDYSIXLDKKAQXXFIEYLIEGGPSSGAPPPS (Aib2; αMeF6; αMeL13; K17((2-[2-(2-Amino-ethoxy)-ethoxy]-acetyl)2-(γ-Glu)-CO-(CH2)18-CO2H); Aib20; Aib21; C-terminal NH2) [Example 143]", 1.0],
  ["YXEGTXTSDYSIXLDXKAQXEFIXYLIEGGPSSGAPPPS (Aib2; αMeF(2F)6; αMeL13; Dap16; K17((2-[2-(2-Amino-ethoxy)-ethoxy]-acetyl)2-(γ-Glu)-CO-(CH2)16-CO2H); Aib20; D-Glu24; C-terminal NH2) [Example 210]", 1.0]
]}

Say whether XAEGTFTSDYSILLDKKAQXAFIEYLIEGGPSSGAPPPS (N-terminal Ac; D-Tyr1; K17((2-[2-(2-Amino-ethoxy)-ethoxy]-acetyl)2-(γ-Glu)-CO-(CH2)18-CO2H); Aib20; C-terminal NH2) [Example 79] shows pKi of 10 or more. 1.0

Say whether YXEGTFTSDYSXLLDKKAQXAFIEYLIEGGPSSGAPPPS (Aib2; D-Ile12; K17((2-[2-(2-Amino-ethoxy)-ethoxy]-acetyl)2-(γ-Glu)-CO-(CH2)18-CO2H); Aib20; C-terminal NH2) [Example 82] shows pKi of 10 or more. 0.0
